tested on: Staphylococcus aureus; assay: Inhibition of Staphylococcus aureus MurF using D-Ala-D-Ala/UMtri-L-Lys as substrate assessed as residual activity at 100 uM after 15 mins by Malachite green method
MEASURE_NAME: Activity (%)
Give just the numeric value; % need not be written.

Check out these entries, answers already filled in.
COMPOUND: CC(C)(C)OC(=O)N1CCc2c(sc(NC(=O)c3cc(S(=O)(=O)N4CCOCC4)c(Cl)cc3Cl)c2C#N)C1
UNITS_SYMBOL: %
Activity: 78
--
COMPOUND: N#Cc1c(NC(=O)c2cc(S(=O)(=O)N3CCSC3)c(Cl)cc2Cl)sc2c1CCCC2
UNITS_SYMBOL: %
Activity: 85
--
COMPOUND: N#Cc1c(NC(=O)c2cc(S(=O)(=O)N3CCC(C(=O)O)CC3)c(Cl)cc2Cl)sc2c1CCCC2
UNITS_SYMBOL: %
Activity: 96

Now, please, on to the next compound.
Challenge: What measured Activity goes with COc1ccc(C2CCc3c(sc(NC(=O)c4cc(S(=O)(=O)N5CCOCC5)c(Cl)cc4Cl)c3C#N)C2)cc1 (centres undefined) ?
Response given: 85

Data provenance: ChEMBL document CHEMBL2406982
